System: BJ
Assay: Cytotoxicity against human BJ cells after 72 hrs by luminescence assay
Type: cell-based
quantity.measured: Activity

The cases that follow already have their Activity on record.
| molecule | target.or.system | Activity |
| --- | --- | --- |
| CCN(CC)CC(O)COc1ccc(F)cc1C(=O)CCc1ccc(F)cc1.Cl (racemic) | BJ | Non-toxic |
| Cl.O=C(CCc1ccccc1)c1ccccc1OCC(O)CN1CCC(c2ccc(Cl)cc2)CC1 (racemic) | BJ | Non-toxic |
| COc1ccccc1N1CCN(CC(O)COc2ccc(F)cc2C(=O)CCc2ccccc2)CC1.Cl (racemic) | BJ | Non-toxic |
| CCCCN(CCCC)CC(O)COc1ccc(F)cc1C(=O)CCc1ccc(F)cc1.Cl (racemic) | BJ | Non-toxic |

Proceeding to the next molecule to report its Activity.
What value of measured Activity is listed for Cc1ccccc1N1CCN(CC(O)COc2ccc(F)cc2C(=O)CCc2ccc(F)cc2)CC1.Cl (racemic) ?
Non-toxic
